- System: Escherichia coli
- assay-overview: Concentration (IC50) to inhibit the growth of Escherichia coli.
- Format: functional, organism-based
Recorded measurements of IC50, one per entry
readout-kind: IC50

>>> result("CC(N)C(=O)NC(C)P(=O)(O)O (stereo unspecified)")
"0.22 µg/mL"
>>> result("CC(C)CC(N)C(=O)NC(C12CC3CC(CC(C3)C1)C2)P(=O)(O)O (stereo unspecified)")
"> 512 µg/mL"
>>> result("CC(C)CC(N)C(=O)NC(C1CCCC1)P(=O)(O)O (stereo unspecified)")
"> 512 µg/mL"
>>> result("CC(C)CC(N)C(=O)NC(C(C)(C)C)P(=O)(O)O (stereo unspecified)")
"> 512 µg/mL"
>>> result("CC(N)C(=O)NC(Cc1ccccc1)P(=O)(O)O (stereo unspecified)")
"> 512 µg/mL"
>>> result("CC(N)C(=O)NC(C(C)C)P(=O)(O)O (stereo unspecified)")
"> 512 µg/mL"
